Source of measurements: the supplement of paper PMC9170038

# maps each entry to its apparent KD of K4 kissing-loop reporter
# Test system: K4 kissing-loop RNA reporter;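 also: bound reporter read as fluorescence of individual clusters on recovered sequencing chips by microscopy, with normalized cluster intensities fitted with a binding model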
# experimental protocol: apparent KD of K4 kissing-loop reporter; higher = weaker reporter binding
# condition context: Eterna round: R107; input ligand: none

| sequence entry | system | apparent KD of K4 kissing-loop reporter (nM) |
| --- | --- | --- |
| GUCAAGGGUGCGGCCGCCACUUCUAGUGAUGUUAGUUUGUCUUCGUUCAACCGGCGUCUGCACGCAAGGACCGGGCACCAGCGAC [theeternabot_exclusion_KL_Trp_B_10] | K4 kissing-loop RNA reporter | 567 |
| UGUGAUGUGUAGUGUUAUGUUUUGCGGGAUACCAGAGUCUUUUUAUUCCCUUGGCAGCUUGAGUGAUGUUUGAUGCUGUUGUUGU [pwwamullin] | K4 kissing-loop RNA reporter | 461 |
| GAUUCAGUGAUGUUGGAAGGCGAGCGGGAUACCAGCGGAGACUCACGCCCUUGGCAGCCCACAUAUCCCAGGUAGAUAAUAGAUC [Same State - Theophylline A (Freestyle 7)] | K4 kissing-loop RNA reporter | 178 |
| CUUGGAAGGACGGCCGCCACUCGACAGUGAUGUUGUCCGAGUGGGUAGCGCAGUGAUGUUGUGUCGAGGACCGGGUCCUAGGAAU [Exclusion Tryptophan B GF 27] | K4 kissing-loop RNA reporter | 170 |
| UAUCGAGUGAUGUUCGAUGUAGUGCAUUCAGAGGAUAUAGGAUGGGCUAGAAGGCUGAAAAGUGCUUCGAGUGAUGUUCGAAGAU [Exclusion FMN A GF 5] | K4 kissing-loop RNA reporter | 80.3 |
| UAGGCGGGAGAAGGAUAUCUGUGAAACCUGCUGCCCAAUAAGUGAUGUUUAUAAAGGAAGCGUCAUAGAGAAGGUCUAACAAGUA [theeternabot_sameState_KL_FMN_B_1] | K4 kissing-loop RNA reporter | 714 |

* * *

# Tested on: MS2 coat protein
# experimental protocol: apparent KD of MS2 coat protein; designed switch direction (-1 OFF switch, 1 ON switch): 1; higher = weaker reporter binding
# condition context: input ligand: microRNA oligo, concentration not stated
# maps each entry to its apparent KD of MS2 coat protein
assay endpoint: apparent KD of MS2 coat protein (nM)

| sequence entry | assay endpoint | measurement units | recorded number |
| --- | --- | --- | --- |
| GAAAAGACAUGAGGAUCACCCAUGUGAAAGCCUAAGGGCCCACAGGAUAUACAGUGAAAAGCACUGUAGAAGGGUGAUAAAGAC [Ordibidi] (Eterna round: R96, puzzle: Same State NG 3) | apparent KD of MS2 coat protein | nM | 271 |
| GCUCGACGUGUUGUCUACAUGAGGAUCACCCAUGUAGGUGCGGAGGAUAUCUACGUGCUUUAUGUAGAGAAGGUCGUGUCGAGC [SameState NG3 #87] (Eterna round: R96, puzzle: Same State NG 3) | apparent KD of MS2 coat protein | nM | 55.3 |
| UUAACAUGAGGAUCACCCAUGUAUGCGUUGCUUGCAUUUUGACAGGAUAUUGUUUAUCCAUAUAGCAAGAAGGGUCGUUAGUCU [JR_SSNG3_Sub010] (Eterna round: R96, puzzle: Same State NG 3) | apparent KD of MS2 coat protein | nM | 63.1 |

* * *

# Test system: MS2 coat protein
# experimental protocol: apparent KD of MS2 coat protein; designed switch direction (-1 OFF switch, 1 ON switch): -1; higher = weaker reporter binding
# condition context: input ligand: FMN 200 uM
Just so you know, the groups by apparent KD of MS2 coat protein go like this: lower range: < 0.04 µM; middle range: ≥ 0.04 µM and < 0.1 µM; upper range: ≥ 0.1 µM

| sequence entry | class name |
| --- | --- |
| UAUUAACAAGUAAGAUCCCACAUGAGGAUCACCCAUGUUCGUCUUAUAGGUACUGUGACACAAAGUGUCACGGUACC [Mod of Eli's R95 Sensor 3, v1 - 87] (Eterna round: R97, puzzle: Sensor, turn-off variant 1) | lower range |
| GGUGGGCUAGGAUAUGCUUUGGGCAGGCAUUCCUUCGAUAAACUUGAGGAUCACCCAAGUAGAAGGAGCUUGCC [salish99_ex2_r4_025] (Eterna round: R97, puzzle: Exclusion 2) | lower range |
| GGCACACAUGAGGAUCACCCAUGUCAGGAUAUGUGGCGAUCGUCGAUAGACGAUAGCCACAGAAGGGACAGGCC [Mat - Exclusion 1 - Eli Mod - D22] (Eterna round: R97, puzzle: Exclusion 1) | upper range |
| UUGUGCACGCUGCGAUCCUACAUGAGGAUCACCCAUGUGGUCUGGUGGCGUGGGUCACCGGACUUGGCUCGUCUUGG [salish99_S_TOV1_R5_076] (Eterna round: R97, puzzle: Sensor, turn-off variant 1) | upper range |
| CUCCUGCGAGGAUAUACAUAGUGACGUCUGUUUAAUCUUAAACAUGAGGAUCACCCAUGUAGAAGGUGCGUCAC [EX2 #82] (Eterna round: R97, puzzle: Exclusion 2) | lower range |
| UAGUAAAAGGUGAGGAUAUCCGCAAUAAAACGUGAGGAGAAGGCACAUGAGGAUCACCCAUGUAGGGUAUCAAA [BmEX4 A.17] (Eterna round: R97, puzzle: Brourd's mod of Exclusion 4) | upper range |
| GCUGGUCGAGGAUAUGCAUAUACUGGAUACAGUGGAAGGUCACAUGAGGAUCACCCAUGUAGAAGGCGACCAGC [EX2 #36] (Eterna round: R97, puzzle: Exclusion 2) | upper range |
| CAGUACUGAGGAUAUACAUGAGGAUCACCCAUGUGUCUUCUCCUAGGAAACUAGGUAUGUAGAAGGCAGUACUG [Omei Ex3 Mod of Eli 4.27 v1] (Eterna round: R97, puzzle: Exclusion 3) | upper range |
| GAGUGAUGAGGAUAUACAUGAGGAUCACCCAUGUGCUUCAGCUAGGAGACUAGCAUUGGUAGAAGGCAUUACUC [Mod of lroppy 7 - Jieux - Exclusion 3] (Eterna round: R97, puzzle: Exclusion 3) | middle range |
| CCGGGUCACGUAAGGAUAUCACGCGCAGACGCUAGUGAGAAGGUACAUGAGGAUCACCCAUGUUCCAUUCGCAG [BmEX4 C.5] (Eterna round: R97, puzzle: Brourd's mod of Exclusion 4) | lower range |
| AUACUUGCGAAGGAUAUGUAUCAAAGGAACGAAACAGAAGGUUGAACAUGAGGAUCACCCAUGUGUUCCUCGGA [Eternabot (Original) Solution 40] (Eterna round: R97, puzzle: Exclusion 6) | upper range |
| ACAUGAGGAUCACCCAUGUUAUGUUGGGUACUAAAUUAUUCGUAGGAUAUCGUAGCUAGUUUGUGCGAGAAGGACGCAUUUUUU [JR_ExcNG3_Sub059] (Eterna round: R96, puzzle: Exclusion NG 3) | upper range |
| CCAUGUCCAGAGGAUAUGUAGCGGAUAAACGCAACAGAAGGCUGGACAUGAGGAUCACCCAUGUGCGCCUUCCA [Letion] (Eterna round: R97, puzzle: Exclusion 6) | lower range |
| AAACCUAAUGUUAGGAUAUGCUUCGGGCUUCCGCUGCAGAAGGAACAUGAGGAUCACCCAUGUCAAAUAAAAUC [JL-BMX4-4.39 ViennaUCT mod] (Eterna round: R97, puzzle: Brourd's mod of Exclusion 4) | middle range |
| GCACGGAGUGUAGGAUAUCUGUGCGAUUAGCUCAGAGAAGGACACAUGAGGAUCACCCAUGUGUACCUCAACACUAAUCCGUGC [Eli exng1 - 076] (Eterna round: R96, puzzle: Exclusion NG 1) | lower range |
| ACGCAUUGCCUUUGGUAGUGCGUAACAUGAGGAUCACCCAUGUAGGAUAUGGUAGGCUUUGCUUACCAGAAGGACAUUAUAUUC [JL ENG3 1.03] (Eterna round: R96, puzzle: Exclusion NG 3) | middle range |
| CGCCUGUUAGGAUAUUAGUAGUAGUCAGAAUAGACUAUUACUGAGAAGGGACAUGAGGAUCACCCAUGUUGGCG [Eli x4 4.12] (Eterna round: R97, puzzle: Exclusion 4) | lower range |
| GGUUACAAGCUAAGAUCCUACAUGAGGAUCACCCAUGUGGUCCGGUGACGUGAGUCACCGGACUUAGCUCGUCUUGU [salish99_S_TOV1_R5_002] (Eterna round: R97, puzzle: Sensor, turn-off variant 1) | middle range |

* * *

# System: MS2 coat protein
# experimental protocol: apparent KD of MS2 coat protein; designed switch direction (-1 OFF switch, 1 ON switch): -1; higher = weaker reporter binding
# condition context: Eterna round: R95; input ligand: microRNA oligo, concentration not stated
Lab note: anything with apparent KD of MS2 coat protein at or over 40 nM counts as 1; the rest go in 0.

| sequence entry | class name |
| --- | --- |
| GAGGAUAGAGGAUAUGCAUAGAUACGGAUUCGUGUAGUACUACAUGAGGAUCACCCAUGUAGAAGGCUGUCCUG [JL-ex2-2.01 mat747 mod] (puzzle: Exclusion 2) | 0 |
| CAACCACAUGAGGAUCACCCAUGUGAGGAUAUGAUACUAUGUACUUCGGUACAUAGUAUCAGAAGGCACAGGUG [Ex1-3: 60] (puzzle: Exclusion 1) | 1 |
| GUGAAGUGAGGAUAUACGAGAGAGGCUGAACCUGGAGAGAAGUAGAAGGCACAUGAGGAUCACCCAUGUUAGGA [JR_Exclu4_Sub021] (puzzle: Exclusion 4) | 0 |
| CUGAGGUAGCGGUCCUAUGACAUGAGGAUCACCCAUGUACCUUGCUUUGAGCUAAUUGCUCGUCUUAUGAUUCUCGG [Mat - Sensor v3 - turn-off var 1 - JL Mod - D45] (puzzle: Sensor v3, turn-off variant 1) | 1 |
| CUUUUGUGAGGAUAUCAGUAGUAAAAAAAUAAAAUUACUACUGAGAAGGUACAUGAGGAUCACCCAUGUUCCUC [salish99_ex4_r3_031] (puzzle: Exclusion 4) | 0 |
